Experiment: Pharmacokinetic evaluation, single dosing (oral and intravenous) in rats
Assay type: in vivo, male Sprague-Dawley rats
Set-up: unit not given here
Conditions: rat, intravenous, dose 2 mg/kg, plasma
Description: Pharmacokinetic profile for test compound was measured by single dosing in male Sprague-Dawley rats. […] All the plasma samples were analyzed using a Shimadzu (DGU-405) HPLC with an API 6500+MS/MS system following the manufacturer's instructions. All the analytes were detected with positive-mode electrospray ionization (ES+). […] Based on the time course sampling, an area under the curve (AUC) was calculated for the oral group and intravenous group. […]

- molecule: "[2H]C([2H])(Oc1nc(N2CCOC[C@H]3[C@H](F)[C@H]32)c2cnc(-c3cc(O)cc4ccc(Cl)c(C#C)c34)c(F)c2n1)[C@@]12CCCN1C[C@H](F)C2"
  IV (dose 2 mg/kg) (AUC/D) (h*mg/mL): 129
- molecule: "[2H]C([2H])(Oc1nc(N2CCCC[C@H]3[C@H](F)[C@H]32)c2cnc(-c3cc(N)cc4cc(F)c(F)c(C#C)c34)c(F)c2n1)[C@@]12CCCN1C[C@H](F)C2"
  IV (dose 2 mg/kg) (AUC/D) (h*mg/mL): 718
- molecule: "[2H]C([2H])(Oc1nc(N2CCOC[C@H]3[C@H](F)[C@H]32)c2cnc(-c3cc(N)cc4cc(F)c(F)c(C#C)c34)c(F)c2n1)[C@@]12CCCN1C[C@H](F)C2"
  IV (dose 2 mg/kg) (AUC/D) (h*mg/mL): 993
- molecule: "[2H]C([2H])(Oc1nc(N2CCCC[C@H]3[C@H](F)[C@H]32)c2cnc(-c3cc(N)cc4ccc(F)c(C#C)c34)c(F)c2n1)[C@@]12CCCN1C[C@H](F)C2"
  IV (dose 2 mg/kg) (AUC/D) (h*mg/mL): 490
- molecule: "[2H]C([2H])([2H])Oc1c(F)ccc2cc(N)cc(-c3ncc4c(N5CCCO[C@H]6[C@H](F)[C@H]65)nc(OC([2H])([2H])[C@@]56CCCN5C[C@H](F)C6)nc4c3F)c12"
  IV (dose 2 mg/kg) (AUC/D) (h*mg/mL): 609
- molecule: "[2H]C([2H])(Oc1nc(N2CCOC[C@H]3[C@H](F)[C@H]32)c2cnc(-c3cc(N)cc4ccc(Cl)c(C#C)c34)c(F)c2n1)[C@@]12CCCN1C[C@H](F)C2"
  IV (dose 2 mg/kg) (AUC/D) (h*mg/mL): 1066
- molecule: "[2H]C([2H])([2H])Oc1c(F)ccc2cc(N)cc(-c3ncc4c(N5CCCC[C@H]6[C@H](F)[C@H]65)nc(OC([2H])([2H])[C@@]56CCCN5C[C@H](F)C6)nc4c3F)c12"
  IV (dose 2 mg/kg) (AUC/D) (h*mg/mL): 1401
- molecule: "[2H]C([2H])(Oc1nc(N2CCCC[C@H]3[C@H](F)[C@H]32)c2cnc(-c3cc(O)cc4ccc(F)c(C#C)c34)c(F)c2n1)[C@@]12CCCN1C[C@H](F)C2"
  IV (dose 2 mg/kg) (AUC/D) (h*mg/mL): 96
- molecule: "[2H]C([2H])(Oc1nc(N2CCCO[C@H]3[C@H](F)[C@H]32)c2cnc(-c3cc(N)cc4cc(F)c(F)c(C#C)c34)c(F)c2n1)[C@@]12CCCN1C[C@H](F)C2"
  IV (dose 2 mg/kg) (AUC/D) (h*mg/mL): 405
- molecule: "[2H]C([2H])(Oc1nc(N2CCOC[C@H]3[C@H](F)[C@H]32)c2cnc(-c3cc(N)cc4ccc(F)c(C#C)c34)c(F)c2n1)[C@@]12CCCN1C[C@H](F)C2"
  IV (dose 2 mg/kg) (AUC/D) (h*mg/mL): 494
- molecule: "[2H]C([2H])([2H])Oc1c(F)ccc2cc(N)cc(-c3ncc4c(N5CCOC[C@H]6[C@H](F)[C@H]65)nc(OC([2H])([2H])[C@@]56CCCN5C[C@H](F)C6)nc4c3F)c12"
  IV (dose 2 mg/kg) (AUC/D) (h*mg/mL): 1086
- molecule: "[2H]C([2H])(Oc1nc(N2CCOC[C@H]3[C@H](F)[C@H]32)c2cnc(-c3cc(O)cc4ccc(F)c(C#C)c34)c(F)c2n1)[C@@]12CCCN1C[C@H](F)C2"
  IV (dose 2 mg/kg) (AUC/D) (h*mg/mL): 143
- molecule: "[2H]C([2H])(Oc1nc(N2CCCO[C@H]3C(F)[C@H]32)c2cnc(-c3cc(N)cc4ccc(F)c(C#C)c34)c(F)c2n1)[C@@]12CCCN1C[C@H](F)C2 (stereo in doubt)"
  IV (dose 2 mg/kg) (AUC/D) (h*mg/mL): 323

###

Tested on: KRAS G12V dependent lung adenocarcinoma cell line, NCI-H441
Assay: Cellular pERK (Thr202/Tyr204) FRET/HTRF assay
Type: cell-based
Details: Homo sapiens, NCI-H441, cellular pERK (Thr202/Tyr204) HTRF, NCI-H441 cells
pIC50: −log10 of the molar value.

- compound: "C#Cc1c(Cl)ccc2cc(O)cc(-c3ncc4c(N5CCOC[C@H]6[C@H](F)[C@H]65)nc(OC[C@@H]5CCCN5C)nc4c3F)c12"
  subject.of.test: "KRAS G12V dependent lung adenocarcinoma cell line, NCI-H441"
  pIC50: "> 7.30"
- compound: "[2H]C([2H])([2H])Oc1c(F)cc(F)c2cc(N)cc(-c3ncc4c(N5CCC=C[C@H]6[C@H](F)[C@H]65)nc(OC([2H])([2H])[C@@]56CCCN5C[C@H](F)C6)nc4c3F)c12"
  subject.of.test: "KRAS G12V dependent lung adenocarcinoma cell line, NCI-H441"
  pIC50: "> 7.30"
- compound: "C#Cc1c(Cl)ccc2cc(N)cc(-c3ncc4c(N5CCOC[C@H]6[C@H](F)[C@H]65)nc(OC[C@@H]5CCCN5C)nc4c3F)c12"
  subject.of.test: "KRAS G12V dependent lung adenocarcinoma cell line, NCI-H441"
  pIC50: "> 7.30"
- compound: "[2H]C([2H])(Oc1nc(N2CCCC[C@H]3[C@H](F)[C@H]32)c2cnc(-c3cc(N)cc4ccc(C)c(C#C)c34)c(F)c2n1)[C@@]12CCCN1[C@H](C)[C@H](F)C2"
  subject.of.test: "KRAS G12V dependent lung adenocarcinoma cell line, NCI-H441"
  pIC50: "> 7.30"
- compound: "Cc1c(F)c(N)cc(-c2ncc3c(N4CCCC[C@@H]5[C@@H](F)[C@@H]54)nc(OC[C@@]45CCCN4C/C(=C/F)C5)nc3c2F)c1C(F)(F)F"
  subject.of.test: "KRAS G12V dependent lung adenocarcinoma cell line, NCI-H441"
  pIC50: "5.00 to 6.30"
- compound: "[2H]C([2H])(Oc1nc(N2CCC=C[C@@H]3[C@@H](F)[C@@H]32)c2cnc(-c3cc(N)cc4cc(F)c(F)c(C#C)c34)c(F)c2n1)[C@@]12CCCN1C[C@H](F)C2"
  subject.of.test: "KRAS G12V dependent lung adenocarcinoma cell line, NCI-H441"
  pIC50: "> 7.30"
- compound: "C#Cc1c(F)ccc2cc(N)cc(-c3ncc4c(N5CCOC[C@H]6[C@H](F)[C@H]65)nc(OC[C@@]56CCCN5CC(=C)C6)nc4c3C)c12"
  subject.of.test: "KRAS G12V dependent lung adenocarcinoma cell line, NCI-H441"
  pIC50: "> 7.30"
- compound: "[2H]C([2H])(Oc1nc(N2CC[C@@H](C#N)C[C@@H]3[C@@H](F)[C@@H]32)c2cnc(-c3cc(N)cc4ccc(F)c(C#C)c34)c(F)c2n1)[C@@]12CCCN1C[C@H](F)C2"
  subject.of.test: "KRAS G12V dependent lung adenocarcinoma cell line, NCI-H441"
  pIC50: "6.30 to 7.30"
- compound: "[2H]C([2H])(F)Oc1c(F)ccc2cc(N)cc(-c3ncc4c(N5CCCC[C@H]6[C@H](F)[C@H]65)nc(OC([2H])([2H])[C@@]56CCCN5C[C@H](F)C6)nc4c3F)c12"
  subject.of.test: "KRAS G12V dependent lung adenocarcinoma cell line, NCI-H441"
  pIC50: "> 7.30"
- compound: "[2H]C([2H])(Oc1nc(N2CCCC[C@H]3[C@H](F)[C@H]32)c2cnc(-c3nc(N)cc4ccc(F)c(Cl)c34)c(F)c2n1)[C@@]12CCCN1C[C@H](F)C2"
  subject.of.test: "KRAS G12V dependent lung adenocarcinoma cell line, NCI-H441"
  pIC50: "6.30 to 7.30"
- compound: "[2H]C([2H])(Oc1nc(N2CCOC[C@H]3[C@H](F)[C@H]32)c2cnc(-c3cc(N)cc4ccc(F)c(C#C)c34)c(Cl)c2n1)[C@@]12CCCN1C[C@H](F)C2"
  subject.of.test: "KRAS G12V dependent lung adenocarcinoma cell line, NCI-H441"
  pIC50: "> 7.30"
- compound: "[2H]C([2H])(Oc1nc(N2CCOC[C@H]3[C@@H](F)[C@H]32)c2cnc(-c3cc(N)cc4ccc(F)c(C#C)c34)c(F)c2n1)[C@@]12CCCN1C[C@H](F)C2"
  subject.of.test: "KRAS G12V dependent lung adenocarcinoma cell line, NCI-H441"
  pIC50: "> 7.30"
- compound: "C#Cc1c(F)ccc2cc(N)cc(-c3ncc4c(N5CCOC[C@H]6[C@H](F)[C@H]65)nc(OC[C@@]56CCCN5CC(=C(F)F)C6)nc4c3C)c12"
  subject.of.test: "KRAS G12V dependent lung adenocarcinoma cell line, NCI-H441"
  pIC50: "> 7.30"
- compound: "[2H]C([2H])(Oc1nc(N2CCOC[C@H]3[C@H](F)[C@H]32)c2cc(F)c(-c3nc(N)cc(C)c3C(F)(F)F)c(F)c2n1)[C@@]12CCCN1C[C@H](F)C2"
  subject.of.test: "KRAS G12V dependent lung adenocarcinoma cell line, NCI-H441"
  pIC50: "6.30 to 7.30"
- compound: "C#Cc1c(F)ccc2cc(N)cc(-c3ncc4c(N5CCOC[C@H]6[C@H](F)[C@H]65)nc(OC[C@]56C[C@@H](F)CN5CCC6=C)nc4c3F)c12"
  subject.of.test: "KRAS G12V dependent lung adenocarcinoma cell line, NCI-H441"
  pIC50: "> 7.30"
- compound: "C#Cc1c(F)ccc2cc(N)cc(-c3ncc4c(N5CCOC[C@H]6[C@H](F)[C@H]65)nc(OC[C@]56CC(=C)CN5CCC65CC5)nc4c3F)c12"
  subject.of.test: "KRAS G12V dependent lung adenocarcinoma cell line, NCI-H441"
  pIC50: "> 7.30"
- compound: "C#Cc1c(F)ccc2cc(N)cc(-c3ncc4c(N5CCCC[C@H]6[C@H](F)[C@H]65)nc(OC[C@]56C/C(=C\\F)CN5CCC65CC5)nc4c3F)c12"
  subject.of.test: "KRAS G12V dependent lung adenocarcinoma cell line, NCI-H441"
  pIC50: "> 7.30"
- compound: "Nc1cc(Cl)c(C(F)(F)F)c(-c2ncc3c(N4CCCC[C@H]5[C@H](F)[C@H]54)nc(OC[C@]45CC(=C(F)F)CN4CCC54CC4)nc3c2F)c1"
  subject.of.test: "KRAS G12V dependent lung adenocarcinoma cell line, NCI-H441"
  pIC50: "5.00 to 6.30"
- compound: "C#Cc1c(F)c(F)cc2cccc(-c3ncc4c(N5CCOC[C@@H]6[C@@H](F)[C@@H]65)nc(OC[C@@]56CCCN5CC(=C(F)F)C6)nc4c3F)c12"
  subject.of.test: "KRAS G12V dependent lung adenocarcinoma cell line, NCI-H441"
  pIC50: "5.00 to 6.30"
- compound: "[2H]C([2H])(Oc1nc(N2CCOC[C@H]3[C@H](F)[C@H]32)c2cnc(-c3cc(N)cc4ccc(F)c(C#C)c34)c(F)c2n1)[C@@]12CCCN1C[C@H](CC#N)C2 (single isomer, unassigned)"
  subject.of.test: "KRAS G12V dependent lung adenocarcinoma cell line, NCI-H441"
  pIC50: "> 7.30"
